Target: human FXR (NR1H4) (Homo sapiens, UniProt Q96RI1)
Sequence (Q96RI1 1-476 isoform Q96RI1-1): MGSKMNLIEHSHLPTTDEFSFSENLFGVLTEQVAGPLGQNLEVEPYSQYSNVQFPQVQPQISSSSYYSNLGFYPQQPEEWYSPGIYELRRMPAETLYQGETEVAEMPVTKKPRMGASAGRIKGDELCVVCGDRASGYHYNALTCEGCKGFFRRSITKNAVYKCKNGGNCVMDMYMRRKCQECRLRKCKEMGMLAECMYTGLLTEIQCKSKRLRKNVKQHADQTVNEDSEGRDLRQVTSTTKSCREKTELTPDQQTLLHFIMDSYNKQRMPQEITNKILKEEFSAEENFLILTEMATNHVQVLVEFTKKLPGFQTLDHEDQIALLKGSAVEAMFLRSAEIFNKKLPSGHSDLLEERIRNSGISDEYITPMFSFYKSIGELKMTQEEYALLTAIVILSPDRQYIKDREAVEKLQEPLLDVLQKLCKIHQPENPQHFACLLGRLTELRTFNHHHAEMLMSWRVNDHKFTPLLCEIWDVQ
Experiment: Human FXR (NR1H4) agonist assessment, FXRE-NanoLuc reporter in HEK293T cells
Assay type: cell-based
Conditions: FXR activation, HEK293T FXRE-NanoLuc reporter, 24 hr
QUANTITY MEASURED: Efficacy (maximum measured induction of NanoLuc, normalized to CDCA set as 100%)

- STRUCTURE SMILES: "CC[C@H]1[C@@H](O)[C@@H]2[C@H](CC[C@]3(C)[C@@H]([C@H](C)CCNC(=O)NS(=O)(=O)C4CCCCC4)CC[C@@H]23)[C@@]2(C)CCCC[C@@H]12"
  OBSERVED RESULT: "C (100%<efficacy <=300%)"
- STRUCTURE SMILES: "C[C@H](CC/C=C/C(=O)O)[C@H]1CC[C@H]2[C@@H]3CC[C@@H]4C[C@H](O)CC[C@]4(C)[C@H]3C[C@H](O)[C@]12C"
  OBSERVED RESULT: "C (100%<efficacy <=300%)"
- STRUCTURE SMILES: "CC[C@H]1[C@@H](O)[C@@H]2[C@H](CC[C@]3(C)[C@@H]([C@H](C)CCNC(=O)NS(=O)(=O)c4cc(F)cc(F)c4)CC[C@@H]23)[C@@]2(C)CCC(F)(F)C[C@@H]12"
  OBSERVED RESULT: "C (100%<efficacy <=300%)"
